The values you see were collected from ChEMBL document CHEMBL1131893.

Test system: U-87 MG
Test: In vitro cytotoxic activity against U-87-MG (glioblastoma) cell line.
Type: functional, U-87MG ATCC
Settings: Homo sapiens, read-out: ED50 (the source's name)
result.type: log10(EC50) (log10 of the value in mg/L)
Values below are the log10 of the recorded EC50, with mg/L as the unit.

Reported log10(EC50), compound COc1ccc2c(c1)[nH]c1c(/C=C/c3ccc([N+](=O)[O-])cc3)nccc12 : ____
0.08

Input Cc1nccc2c1[nH]c1ccccc12
1.28

Thanks! And Cc1[nH]ccc2c1[nH]c1cc(=O)ccc12 ?
0.62

====

Quick reference for EC50 among some compounds
System: HEL
Assay: In vitro cytotoxic activity was determined against embryonic lung fibroblast (HEL) cell line
Assay type: functional
Conditions: Homo sapiens, read-out: ED50 (the source's name)

Some entries whose results are on file:
compound: CCCn1c2cc(OC)ccc2c2cc[n+](C)c(C)c21.[I-]
result.type: EC50
value: 15 µg/mL
//
compound: Cc1nccc2c1[nH]c1ccccc12
result.type: EC50
value: 9.8 µg/mL
//
compound: CCC(CC)C1NC(C(=O)O)Cc2c1[nH]c1cc(OC)ccc21 (stereo unspecified)
result.type: EC50
value: > 20 µg/mL
//
compound: COc1ccc2c(c1)[nH]c1c(C)nccc12
result.type: EC50
value: 1.9 µg/mL
//
compound: COS(=O)(=O)O.Cc1nccc2c1[nH]c1ccccc12
result.type: EC50
value: > 20 µg/mL

I am curious: what EC50 value has been reported for CCC[n+]1ccc2c([nH]c3cc(OC)ccc32)c1C.[I-] ?
9.5 µg/mL

====

Tested on: A549
Test: In vitro cytotoxic activity was determined against lung carcinoma (A549) cell line
Assay type: functional
Settings: Homo sapiens, read-out: ED50 (the source's name)
# EC50 annotations
Provide the reading as a plain figure in µg/mL.

compound: CCOc1ccc2c(c1)[nH]c1c(C)nccc12
EC50 [µg/mL]: 5

Sample CCC[n+]1ccc2c([nH]c3cc(OC)ccc32)c1C.[I-] — what was its EC50?
15

====

Test system: U-87 MG
Experiment: In vitro cytotoxic activity against U-87-MG (glioblastoma) cell line.
Assay type: functional, U-87MG ATCC
Conditions: Homo sapiens, read-out: ED50 (the source's name)
result.type: EC50 (µg/mL)
Kindly answer with a numeric value in µg/mL, unit omitted.

Consider the reported EC50 for these compounds:
structure.smiles.string: CCCCn1c2cc(OC)ccc2c2ccnc(C)c21
target.system: U-87 MG
quantity.unit: µg/mL
EC50: 12.3

structure.smiles.string: COc1ccc2c3ccn(C)c(C)c-3nc2c1
target.system: U-87 MG
quantity.unit: µg/mL
EC50: 9

structure.smiles.string: Br.COc1ccc2c3c([nH]c2c1)C(C)=NCC3
target.system: U-87 MG
quantity.unit: µg/mL
EC50: 9.8

structure.smiles.string: COc1ccc2c(c1)[nH]c1c(C)[n+](C)ccc12.[I-]
target.system: U-87 MG
quantity.unit: µg/mL
EC50: 6.2

structure.smiles.string: COc1cc2[nH]c3c(C)nccc3c2cc1Br
target.system: U-87 MG
quantity.unit: µg/mL
EC50: 14

Checklist item: EC50 tested on U-87 MG, entry CCCCCCCCCCOc1ccc2c(c1)[nH]c1c(C)nccc12 , value?
5.4

Please do the same for COc1ccc2c3ccnc(C)c3n(C)c2c1 as well.
7.8

====

System: HOS
Assay: In vitro cytotoxic activity was determined against osteosarcoma ( HOS) cell line
Type: functional
Conditions: Homo sapiens, read-out: ED50 (the source's name)
Quick reference: EC50 of the listed items.
State the answer as a number, implicitly in µg/mL.

Below, each entry is followed by its recorded EC50 result.
structure.smiles.string: CCCCCCCCCCCCCCCCOc1ccc2c(c1)[nH]c1c(C)nccc12
target.system: HOS
quantity.unit: µg/mL
EC50: 5
//
structure.smiles.string: Cc1nccc2c1[nH]c1cc(OC(C)C)ccc12
target.system: HOS
quantity.unit: µg/mL
EC50: 10.2
//
structure.smiles.string: CCCCCCCCCCOc1ccc2c(c1)[nH]c1c(C)nccc12
target.system: HOS
quantity.unit: µg/mL
EC50: 6.7
//
structure.smiles.string: COc1cc2[nH]c3c(C)nccc3c2cc1Br
target.system: HOS
quantity.unit: µg/mL
EC50: 6.5

Now look at this entry.
Query (compound): CCCCCCOc1ccc2c(c1)[nH]c1c(C)nccc12 ; field requested: EC50
2.5

====

Tested on: HCT-8
Test: In vitro cytotoxic activity was determined against ileocecal carcinoma (HCT-8) cell line
Type: functional
Settings: Homo sapiens, read-out: ED50 (the source's name)
Measured EC50 of individual entries
Could you give me the number in µg/mL? Just the number is fine.

structure.smiles.string: CCCCCCOc1ccc2c(c1)[nH]c1c(C)nccc12
EC50, µg/mL: 3.8
--
structure.smiles.string: CCCCCCCCCCOc1ccc2c(c1)[nH]c1c(C)nccc12
EC50, µg/mL: 4.1

Then this compound:
I am curious: what EC50 value has been reported for COc1cc2[nH]c3c(C)nccc3c2cc1Br ?
16

====

System: U-87 MG
Assay: In vitro cytotoxic activity against U-87-MG (glioblastoma) cell line.
Assay type: functional, U-87MG ATCC
Conditions: Homo sapiens, read-out: ED50 (the source's name)
Measured EC50, listed per entry.

Below: 4 compounds and their reported EC50.
compound: COc1ccc2c3c([nH]c2c1)C(C)N(N=O)CC3 (configuration not stated)
target.system: U-87 MG
result.type: EC50
value: > 10 µg/mL
--
compound: COc1ccc2c(c1)[nH]c1c(C)nccc12 [HARMINE]
target.system: U-87 MG
result.type: EC50
value: 14.5 µg/mL
--
compound: Br.COc1cc2[nH]c3c(C)nccc3c2cc1Br
target.system: U-87 MG
result.type: EC50
value: 6.7 µg/mL
--
compound: CCCCCCOc1ccc2c(c1)[nH]c1c(C)nccc12
target.system: U-87 MG
result.type: EC50
value: 4.2 µg/mL

Item CCn1c2cc(OC)ccc2c2ccnc(C)c21 has what recorded EC50?
7.4 µg/mL

Another compound to look at: Cc1nccc2c1[nH]c1cc(OC(C)C)ccc12
16.4 µg/mL

Next record, please: CCCn1c2cc(OC)ccc2c2cc[n+](C)c(C)c21.[I-]
> 20 µg/mL

====

Test system: A549
Test: In vitro cytotoxic activity was determined against lung carcinoma (A549) cell line
Type: functional
Details: Homo sapiens, read-out: ED50 (the source's name)
// NB: equality with 4 µg/mL counts as N; only EC50 strictly below is Y

Please determine if COc1ccc2c(c1)[nH]c1c(C)[n+](C)ccc12.[I-] is below 4 µg/mL in terms of EC50.
Y

Another compound to check: COc1cc2[nH]c3c(C)nccc3c2cc1Br
N

Check CCCCn1c2cc(OC)ccc2c2ccnc(C)c21 too.
N

Also check Cc1nccc2c1[nH]c1cc(OC(=O)C34CCC(C)(C(=O)O3)C4(C)C)ccc12 (centres undefined)
N

Check Cc1nccc2c1[nH]c1ccccc12 [HARMAN] too.
N

Another compound to check: CCCCCCCCCCOc1ccc2c(c1)[nH]c1c(C)nccc12
Y

What about COS(=O)(=O)O.Cc1nccc2c1[nH]c1ccccc12 ?
N

Same read-out for Cc1[nH]ccc2c1[nH]c1cc(=O)ccc12 [HARMOL] ?
N

====

Test system: HCT-8
Test: In vitro cytotoxic activity was determined against ileocecal carcinoma (HCT-8) cell line
Assay type: functional
Details: Homo sapiens, read-out: ED50 (the source's name)
result.type: EC50

The following molecules have reported results that may help.
structure.smiles.string: COc1ccc2c3ccnc(C)c3n(C)c2c1
EC50: > 20 µg/mL
//
structure.smiles.string: CCn1c2cc(OC)ccc2c2ccnc(C)c21
EC50: > 20 µg/mL

Lab note: next molecule to report on.
Which EC50 value is on record for CCCCn1c2cc(OC)ccc2c2ccnc(C)c21 ?
> 20 µg/mL

====

// values below are reported log10 of EC50
Test system: A549
Assay: In vitro cytotoxic activity was determined against lung carcinoma (A549) cell line
Type: functional
Conditions: Homo sapiens, read-out: ED50 (the source's name)
In plain terms, each number is the log10 of measured EC50 in µg/mL.

structure.smiles.string: COc1ccc2c3ccn(C)c(C)c-3nc2c1
log10 of EC50: 0.43
//
structure.smiles.string: Br.COc1ccc2c3c([nH]c2c1)C(C)=NCC3
log10 of EC50: 0.99
//
structure.smiles.string: COc1ccc2c(c1)[nH]c1c(/C=C/c3ccc([N+](=O)[O-])cc3)nccc12
log10 of EC50: -0.05

What value of log10 of EC50 has been reported for the following compound? CC(=O)Oc1ccc2c(c1)[nH]c1c(C)nccc12
0.63

And what about the compound CCCn1c2cc(OC)ccc2c2cc[n+](C)c(C)c21.[I-] ?
0.60
